# EXPERIMENTAL SYSTEM: APE1Dead (catalytically dead APE1) D210N;E96Q (human) (UniProt P27695)
# Sequence (P27695 whole entry E96Q/D210N): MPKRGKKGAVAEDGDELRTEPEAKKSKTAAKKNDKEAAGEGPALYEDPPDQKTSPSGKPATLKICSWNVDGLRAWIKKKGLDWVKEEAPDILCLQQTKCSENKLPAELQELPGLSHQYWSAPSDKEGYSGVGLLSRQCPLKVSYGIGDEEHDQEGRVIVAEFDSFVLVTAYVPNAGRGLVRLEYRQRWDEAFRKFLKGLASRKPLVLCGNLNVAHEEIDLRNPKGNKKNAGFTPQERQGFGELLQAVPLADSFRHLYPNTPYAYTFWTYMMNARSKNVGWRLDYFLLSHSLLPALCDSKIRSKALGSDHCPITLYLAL
# ASSAY PROTOCOL: EMSA
# EXPERIMENTAL CONDITIONS: THF abasic analog 7 nt from the 3' ds-ss junction; EMSA: 50 mM Tris pH 8, 1 mM EDTA, 0.2 mg/ml BSA, 1 mM DTT, 5% sucrose, room temperature, 5 nM DNA; FRET: 20 mM HEPES pH 7.5, 150 mM KCl, 5 mM MgCl2, 5 mM …
ENDPOINT NAME: Kd (nM)
Enter your answer as a number in nM; do not include the unit.

Query string: Given the sequence CTCAACACTTAACTA / TGGATGATGACTCTTCTGCGTTCGCTGATGCGCCGACGGTAGTTAAGTGTTGAG [Rec-PTJ, abasic site 7 nt from junction (FAM)] , what is its reported Kd?
Result string: 0.7

====

# EXPERIMENTAL SYSTEM: APE1Dead (catalytically dead APE1) D210N;E96Q (human)
# ASSAY PROTOCOL: EMSA
# EXPERIMENTAL CONDITIONS: THF abasic analog directly next to the 3' ds-ss junction; EMSA: 50 mM Tris pH 8, 1 mM EDTA, 0.2 mg/ml BSA, 1 mM DTT, 5% sucrose, room temperature, 5 nM DNA; FRET: 20 mM HEPES pH 7.5, 150 mM KCl, 5 mM MgCl2, 5 mM …
ENDPOINT NAME: pKd
Give only the number. pKd is defined as minus log10 of concentration in molar units.

Query string: Given the sequence CTCAACACTTAACTACCGTCG / TGGATGATGACTCTTCTGCGTTCGCTGATGCGCCGACGGTAGTTAAGTGTTGAG [PTJ, abasic site at junction (FAM)] , what is its reported pKd?
Result string: 8.92
